pIC50: −log10 of the molar value.
Kindly find below pIC50 information for Prothrombin (Homo sapiens) taken from the literature.
readout_label: pIC50

// known answers, use as guide
- N=C(N)c1ccc(CNC(=O)CN2C(=O)[C@H](NS(=O)(=O)Cc3ccccc3)CSc3ccc(-c4cccc(N)c4)cc32)cc1: 5.00
- N=C(N)c1cccc(CCC(/C=C/c2ccccc2)NC(=O)c2ccc(-c3ccccc3)cc2)c1 (stereo not given): 4.51
- N=C(N)c1ccc(CNC(=O)[C@H](Cc2cccc3ccccc23)NC(=O)[C@@H](CC2CCCCC2)NCC(=O)O)cc1: 4.92

I. CC(C)C[C@@H](NC(=O)[C@H](O)Cc1ccc(OS(=O)(=O)O)c(Cl)c1)C(=O)N1[C@H](C(=O)N[C@@H](C=O)CCCNC(=N)N)C[C@@H]2CC[C@@H](O)C[C@@H]21
II. N=C(N)c1ccc(CNC(=O)CN2C(=O)[C@H](NS(=O)(=O)Cc3ccccc3)CSc3ccc(CC(=O)O)cc32)cc1
III. N=C(N)N1CCCC(C[C@H](NC(=O)CN2C(=O)CN(Cc3ccccc3)C(=O)[C@H]2Cc2ccccc2)C(=O)c2nccs2)C1 (stereo not given in full)
## Task Hey, quick one: sort these by pIC50, low to high? Would you mind listing the labels in the order requested?
## Result II, III, I
(II: 4.48, III: 5.91, I: 7.16)
